Tested on: Fibroblast
ASSAY PROCEDURE: Incucyte cell viability with human fibroblast; note: unitless GR value; below 1 slowed growth and below 0 cell loss
Format: toxicity, cell-based
MEASUREMENT SETUP: 18 h, 10 µM, compound concentration 10 uM, replicate number 1
VALUE TYPE: Growth Rate
Write no unit; give the number alone.

Worked set:
{"COMPOUND": "CC(C)CNc1nc(N2CCN(CC3CCCOC3)CC2)ncc1C(=O)NCc1ccccc1 (stereo not drawn)", "TARGET SYSTEM": "Fibroblast", "Growth Rate": -0.97}
{"COMPOUND": "O=C1COc2cc(C(=O)N(Cc3ccc(C(=O)Nc4ccncn4)cc3)C3CC3)ccc2N1", "TARGET SYSTEM": "Fibroblast", "Growth Rate": 0.54}
{"COMPOUND": "Cc1sc(C(=O)c2cncnc2N[C@@H]2C[C@H](COS(N)(=O)=O)[C@@H](O)C2)cc1[C@@H]1NCCc2ccc(Cl)cc21", "TARGET SYSTEM": "Fibroblast", "Growth Rate": 0.44}
{"COMPOUND": "CN[C@@H](C)C(=O)N[C@H](C(=O)N1CCC[C@H]1C(=O)Nc1snnc1-c1ccccc1)C1CCCCC1", "TARGET SYSTEM": "Fibroblast", "Growth Rate": 0.81}
{"COMPOUND": "CNc1ncc2cc(-c3ccc(-c4ncccc4F)cc3Cl)c(=O)n(C[C@H]3OC[C@H](N)CO3)c2n1", "TARGET SYSTEM": "Fibroblast", "Growth Rate": 0.78}

Prompt: Could you share which Growth Rate value was measured for `CCOC(=O)c1ncn2c1[C@@H]1CCCN1C(=O)c1cc(OC)ccc1-2` ?
Response: 0.09

Prompt: Could you share which Growth Rate value was measured for `CC(C)c1cc(Br)c(NC(=O)Nc2cccnc2)c(Br)c1` ?
Response: -0.82

Prompt: Could you share which Growth Rate value was measured for `Cc1ncsc1-c1ccc(CNC(=O)[C@@H]2C[C@@H](O)CN2C(=O)[C@@H](NC(=O)CCCCNC(=O)c2ccc(-c3ccc(N4CCN(C)CC4)c(NC(=O)c4c[nH]c(=O)cc4C(F)(F)F)c3)cc2)C(C)(C)C)cc1` ?
Response: 0.33

* * *

Tested on: HEK-293T
ASSAY PROCEDURE: Incucyte cell viability with HEK293T; note: unitless GR value; below 1 slowed growth and below 0 cell loss
Format: toxicity, cell-based
MEASUREMENT SETUP: human, 12 h, 10 µM, compound concentration 10 uM, replicate number 2
Lab note - cut at 0.7 for Growth Rate: Satisfied if strictly below, Not satisfied if not.

Here are 3 compounds together with their reported answers.
{"COMPOUND": "CC(=O)Nc1c(F)cc(C(=O)N[C@H]2CC[C@H](O)CC2)cc1O[C@@H](C)c1ccccc1 [GSK046]", "GROUP": "Not satisfied"}
{"COMPOUND": "COCc1c(-c2cc3cc(C)cc(OC)c3s2)c2c(N)ncnn2c1CN[C@@H]1CCNC1=O", "GROUP": "Satisfied"}
{"COMPOUND": "CCOC(=O)N1CCC(CN(Cc2ccc(Cl)cc2)Cc2ccc([N+](=O)[O-])s2)C1 (stereo not drawn) [SR9009]", "GROUP": "Satisfied"}

From here, focus on the item given below.
Prompt: Is 0.7 strictly greater than the compound's reported Growth Rate? compound: Cn1nccc1Nc1nccc(-c2cc3c(s2)C(C)(C)N(CCN2CCOCC2)C3=O)n1 [TEMUTERKIB]
Response: Not satisfied
